# Ki per record follows
Biological target: recombinant human NK1 receptors (Homo sapiens)
Construct: expressed in transfected cells; host or cells: Chinese Hamster Ovary (CHO) cells, membrane preparation
Sequence (P25103 whole entry): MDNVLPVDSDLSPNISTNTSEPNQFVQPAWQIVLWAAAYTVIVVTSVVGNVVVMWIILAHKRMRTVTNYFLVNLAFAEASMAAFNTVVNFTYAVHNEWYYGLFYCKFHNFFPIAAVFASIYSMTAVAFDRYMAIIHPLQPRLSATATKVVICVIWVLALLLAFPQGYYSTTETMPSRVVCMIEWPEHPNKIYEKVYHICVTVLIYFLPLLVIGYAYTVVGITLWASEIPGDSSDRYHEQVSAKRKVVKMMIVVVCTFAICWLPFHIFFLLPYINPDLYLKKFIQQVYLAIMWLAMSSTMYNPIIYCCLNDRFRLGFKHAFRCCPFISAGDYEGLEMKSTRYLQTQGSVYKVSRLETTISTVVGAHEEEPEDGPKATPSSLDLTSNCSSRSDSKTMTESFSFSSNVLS
Test: NK1-receptor binding affinity: displacement of [3H]-substance P from CHO cell membranes
Conditions: average of at least two determinations, [3H]-substance P displacement, read-out: pki (negative logarithm of the inhibition constant Ki of displacer ligands) (converted)
Where a name gives a salt, the structure may show the parent alone.
Output spec: scalar in nM, unitless text.

INSERT INTO results (compound, uom, observed_measurement) VALUES
  ('CN(Cc1cc(C(F)(F)F)cc(C(F)(F)F)c1)C(=O)N1CCNCC1c1ccc(Cl)cc1Cl (stereo not shown) [Example 14, hydrochloride]', 'nM', 2),
  ('CN(Cc1cc(C(F)(F)F)cc(C(F)(F)F)c1)C(=O)N1CCNCC1c1ccc(F)cc1 (stereo not shown) [Example 12, hydrochloride]', 'nM', 2),
  ('Cc1cc(F)ccc1C1CNCCN1C(=O)N(C)C(c1cc(C(F)(F)F)cc(C(F)(F)F)c1)C1CC1 (single isomer, unassigned) [Example 34, hydrochloride]', 'nM', 0.794);

Input line: For the compound Cc1cc(F)ccc1C1CNCCN1C(=O)N(C)Cc1cc(C(F)(F)F)cc(C(F)(F)F)c1.Cl (stereo not shown) [Example 1, hydrochloride] , give its measured Ki value.
Output line: 1.07

Input line: For the compound CN(Cc1cc(C(F)(F)F)cc(C(F)(F)F)c1)C(=O)N1CCNCC1c1ccc(F)cc1F.Cl (stereo not shown) [Example 5, hydrochloride] , give its measured Ki value.
Output line: 2.14

Input line: For the compound Cc1cc(F)ccc1C1C(C)NCCN1C(=O)N(C)Cc1cc(C(F)(F)F)cc(C(F)(F)F)c1 (stereo not shown) [Example 23, hydrochloride salt] , give its measured Ki value.
Output line: 0.479

Input line: For the compound Cc1cc(F)ccc1[C@H]1CNCCN1C(=O)N(C)C1(c2cc(C(F)(F)F)cc(C(F)(F)F)c2)CC1 [Example 25, hydrochloride] , give its measured Ki value.
Output line: 0.479
